tested on: KM12; assay: NCI tumour cell line growth inhibition, 48 h
Active and inactive are the calls of the source. Cut-off read from the data, not from the text of the source: active = GI50 up to about 1.1 µM and inactive = higher.
metric_name: GI50

These solved cases illustrate the format of a correct answer.
COC(CC1(OC)OC(=O)C=C1N)OC (stereo unspecified) = > 100 µM (inactive)
O=c1oc2cc(O)ccc2c2oc3cc(O)ccc3c12 [COUMESTROL] = 111 µM (inactive)
c1ccc2cc3c(cc2c1)OP1(Oc2cccc4cccnc24)(O3)Oc2cc3ccccc3cc2O1 = 5.31 µM (inactive)
COC(=O)/C=C/c1cc(OC)c(OC)c(OC)c1 = > 100 µM (inactive)
CC(=O)OC1=CC2(OC(C)=O)CC(C)(C)C1C1C(=O)C=CC(=O)C12 (stereo unspecified) = > 100 µM (inactive)

Prompt line: State GI50 (KM12) of `CCCC(CCC(=O)O)(CCC(=O)O)[N+](=O)[O-]` .
Response line: > 100 µM (inactive)

* * *

system: HCT-116; assay: NCI tumour cell line growth inhibition, 48 h
Active and inactive are the calls of the source. Cut-off read from the data, not from the text of the source: active = GI50 up to about 1.1 µM and inactive = higher.
Just give me one of these, please: yes for active, no for inactive

Illustrative cases are given below, each with its answer.
c1ccc(COc2ccc(C[P+](c3ccccc3)(c3ccccc3)c3ccccc3)cc2)cc1 = yes
CCN(CC)CCNc1ccc2nnn3c4ccc(OC)cc4c(=O)c1c23 = no

Prompt line: Hi team, can someone confirm the assay call for COc1ccc(C2S/C(=C\c3ccc([N+](=O)[O-])cc3)C(=O)N2NC(=O)Cc2ccccc2)cc1 (centres undefined) ?
Response line: no

Prompt line: Tell me the recorded outcome of this test for O=C(O)C1CCC(=O)N1S(=O)(=O)c1ccccc1 (centres undefined) .
Response line: no

Prompt line: What call does the record list for CC(C)(O)[C@@H]1CCC(C)([C@H]2[C@@H](O)CC3(C)C4CC(OC5OC(CO)C(O)C(O)C5O)C5C(C)(C)[C@@H](OC6OCC(O)C(O)C6O)CC[C@@]56C[C@@]46CC[C@]23C)O1 (some centres undefined) ?
Response line: no

Prompt line: What call does the record list for CC(=O)OC1CCC2(C)C(=CCC3C2CCC2(C)C3CC3OC4(CCC(C)CN4)C(C)C32)C1 (centres undefined) ?
Response line: no

Prompt line: Could you kindly confirm the outcome this assay logged for `O=C(COc1ccc2c(=O)cc(-c3ccc(Cl)cc3)oc2c1)N1CCN(c2ccccc2)CC1` ?
Response line: no

Prompt line: Could you kindly confirm the outcome this assay logged for O=C(NCCC1CN(C(=O)OCc2ccccc2)c2ccccc21)OCc1ccccc1 (centres undefined) ?
Response line: no

Prompt line: Could you please tell me the result logged for `CC(=O)Nc1ccc(-c2nnc(SCC(=O)Nc3ccccc3C)o2)cc1` in this assay?
Response line: no

* * *

Reported GI50 values for a set of molecules
system: OVCAR-5; assay: NCI tumour cell line growth inhibition, 48 h
The source made the active and inactive calls. Cut-off read from the data, not from the text of the source: active = GI50 up to about 1.1 µM and inactive = higher.

Prompt line: Look up and report measured GI50 (OVCAR-5) for the following molecule: CC1(C)C2CCC1(C)C(NC(=O)COCCOCC(N)=O)C2 (stereo unspecified)
Response line: > 100 µM (inactive)

Prompt line: Determine reported GI50 for CC(=O)OC12c3ccccc3-c3ccccc3C1C1C(=O)N(C)C(=O)C12Cl (stereo unspecified) ; test system: OVCAR-5.
Response line: > 10 µM (inactive)

Prompt line: Fill in: GI50 on OVCAR-5, entry O=C1N=C(SC2OC(CO)C(O)C(O)C2O)S/C1=C\c1ccccc1 (stereo unspecified)
Response line: > 100 µM (inactive)

Prompt line: Param request: GI50 | system OVCAR-5 | item `CC(=O)CC(=O)CCC(=O)Nc1cccc(C(F)(F)F)c1`
Response line: > 100 µM (inactive)

Prompt line: Find GI50 for CCC(=O)c1c(NOC2OC(COC(C)=O)C(OC(C)=O)C(OC(C)=O)C2OC(C)=O)nc(OC)n(C)c1=O (stereo unspecified) on OVCAR-5 and write it down.
Response line: > 100 µM (inactive)

Prompt line: Send back OVCAR-5 GI50 of `CN(C)CC/C(=N\Nc1ccc(Cl)cc1Cl)c1ccccc1` only.
Response line: 16.9 µM (inactive)
